Molecular target: T1, human galectin-10-His (human)
T1 construct: The last M of the tag may be Met1 of galectin-10; also called humanGal10-His; hGal10
T1 chain: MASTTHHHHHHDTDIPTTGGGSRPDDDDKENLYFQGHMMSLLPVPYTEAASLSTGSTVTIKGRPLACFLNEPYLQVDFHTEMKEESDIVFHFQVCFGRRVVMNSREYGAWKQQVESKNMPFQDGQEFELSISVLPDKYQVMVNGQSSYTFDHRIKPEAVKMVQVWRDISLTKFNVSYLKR
Assay: binding ELISA (summary table)
measured property: pEC50
# log scale: pEC50 equals minus log10 of the concentration in mol/L

pEC50 reading for 10A06 scFv-human Fc (Fc fusion, also called 010A06; not shown: CH2-CH3 constant domains of human IgG1 (pUPEX50 scFv-Fc fusion vector)) scFv: QVQLVESGGGLVQPGGSLRLSCAASGFTFGNYDMSWVRQAPGKGPEWVSDINSGGGSTYYADSVKGRFTISRDNAKNSLLLQMNSLKPEDTAVYYCATGYTGYYYWGQGTQVTVSSGGGGSGGGGSGGGGSQTVVTQEPSLSVSPGGTVTLTCGLSSGSVTSSNYPAWYQQTPGQAPRALIYSINSRHSGVPDRFSGSISGNKAALTITGAQAEDEADYYCTLYMGTGSNNVVFGGGTHLTVL : 10.10
